Where do the numbers come from? From patent US4720387A.

test: blood-level and excretion of native pinacidil
Format: in vivo, inpatients suffering from hypertension
assay-context: human, blood; administered after a meal; read-out: time to maximum concentration
metric: Tmax

Please report Tmax for the following molecule: CC(N/C(=N\C#N)Nc1ccncc1)C(C)(C)C (stereo not shown) [pinacidil]
1 to 3 h

---

test: blood-level and excretion of native pinacidil
Type: in vivo, inpatients suffering from hypertension
assay-context: human, blood; administered after a meal; read-out: biological half-life period
metric: half-life

Please report half-life for the following molecule: CC(N/C(=N\C#N)Nc1ccncc1)C(C)(C)C (stereo not shown)
1 to 2 h
